Structures can show the parent of a compound that is named as a salt.
PROPERTY_MEASURED: melting point

{"COMPOUND": "CC(C)(O)c1cnn2c(-c3ccc(F)c(-c4ccc(F)cn4)c3)cnc2n1", "ENDPOINT_RESULT": "222 °C"}
{"COMPOUND": "CC(C)(F)c1cnn2c(-c3ccc(F)c(-c4cccnc4)c3)cnc2n1 (as salt: hydrochloride)", "ENDPOINT_RESULT": "113 to 126 °C"}
{"COMPOUND": "CC(C)(F)c1cnn2c(-c3ccc(F)c(-c4c(F)cccc4C#N)c3)cnc2n1", "ENDPOINT_RESULT": "187 to 188 °C"}
{"COMPOUND": "CC(C)(O)c1cnn2c(-c3cccc(-c4ccccc4C#N)c3)cnc2n1", "ENDPOINT_RESULT": "166 °C"}
{"COMPOUND": "N#Cc1ccccc1-c1cc(-c2cnc3nccnn23)ccc1F", "ENDPOINT_RESULT": "211 to 215 °C"}
{"COMPOUND": "Cc1cnn2c(-c3cccc(-c4ccccc4C#N)c3)cnc2n1", "ENDPOINT_RESULT": "211 to 216 °C"}
{"COMPOUND": "CC(C)(O)c1cnn2c(-c3ccc(F)c(-c4ccccc4C#N)c3)cnc2n1", "ENDPOINT_RESULT": "187 °C"}
{"COMPOUND": "CC(C)(O)c1cnn2c(-c3cccc(-c4ccncc4)c3F)cnc2n1", "ENDPOINT_RESULT": "221 to 223 °C"}
{"COMPOUND": "Fc1ccc(-c2cnc3nc(C(F)(F)F)cnn23)cc1-c1ccccn1", "ENDPOINT_RESULT": "128 to 131 °C"}
{"COMPOUND": "CC(C)(O)c1cnn2c(-c3ccc(F)c(-c4cccnc4)c3)cnc2n1", "ENDPOINT_RESULT": "199 to 200 °C"}
{"COMPOUND": "N#Cc1ccccc1-c1cccc(-c2cnc3nc(C(F)(F)F)cnn23)c1F", "ENDPOINT_RESULT": "167 to 168 °C"}
{"COMPOUND": "CC(C)(O)c1cnn2c(-c3ccc(F)c(-c4ccncc4)c3)cnc2n1", "ENDPOINT_RESULT": "233 to 237 °C"}
{"COMPOUND": "N#Cc1ccccc1-c1cc(-c2cnc3nc(C(F)(F)F)cnn23)ccc1F", "ENDPOINT_RESULT": "168 to 174 °C"}
